system: OVCAR-4 ovarian; assay: NCI-60 one-dose screen, 48 h (100 = growth as untreated, 0 = no growth, -100 = all killed); conditions: 10 µM unless noted
Compounds without any hit were thinned out: in the full panel of roughly 83,000, 20% have a hit.
Kind request: treat 40% as inclusive, so growth at 40% or higher is YES, anything lower is NO.

SMILES NOTATION	CLASSIFICATION
O=C(Nc1cnc(Nc2ccc(N3CCOCC3)nc2)nc1Oc1ccc(C(F)(F)F)cc1)c1ccncc1	YES
CC(=O)c1ccc(Nc2nccc(-c3ccc4ccccc4c3)n2)cc1	YES
CC1(C)CC(=O)c2c(nn(-c3ccc(Br)cc3)c2-c2cn(-c3ccccc3)nc2-c2cccnc2)C1	YES

Query: Does the molecule `Nc1nc(N)c(N=Nc2ccccc2)c(-c2ccccc2)n1` have recorded growth that is 40% or more?
Result: YES

Query: Could you verify whether the entry `CN1CCN(Cc2ccc(NC(=O)c3cncc(C#Cc4cnc5ccc(Cl)nn45)c3)cc2C(F)(F)F)CC1` shows growth of no less than 40%?
Result: NO

Query: Has `CCOC(=O)c1c(C)nc2c(c1N)CC(=O)N2Cc1ccc(OC)cc1` a recorded growth greater than or equal to 40%?
Result: NO

Query: Has `C=C1C(=O)O[C@H]2[C@H]1CC/C(COC(=O)c1ccc(C(=O)O)s1)=C\CC[C@@]1(C)O[C@@H]21` a recorded growth greater than or equal to 40%?
Result: NO

Query: Decide: growth of `NC(=O)c1cnc(Nc2cccc(N)c2)nc1NCCCNC(=O)C1CCC1` >= 40%?
Result: YES
